- experimental.system: UniProt P08684
- Sequence (P08684 whole entry): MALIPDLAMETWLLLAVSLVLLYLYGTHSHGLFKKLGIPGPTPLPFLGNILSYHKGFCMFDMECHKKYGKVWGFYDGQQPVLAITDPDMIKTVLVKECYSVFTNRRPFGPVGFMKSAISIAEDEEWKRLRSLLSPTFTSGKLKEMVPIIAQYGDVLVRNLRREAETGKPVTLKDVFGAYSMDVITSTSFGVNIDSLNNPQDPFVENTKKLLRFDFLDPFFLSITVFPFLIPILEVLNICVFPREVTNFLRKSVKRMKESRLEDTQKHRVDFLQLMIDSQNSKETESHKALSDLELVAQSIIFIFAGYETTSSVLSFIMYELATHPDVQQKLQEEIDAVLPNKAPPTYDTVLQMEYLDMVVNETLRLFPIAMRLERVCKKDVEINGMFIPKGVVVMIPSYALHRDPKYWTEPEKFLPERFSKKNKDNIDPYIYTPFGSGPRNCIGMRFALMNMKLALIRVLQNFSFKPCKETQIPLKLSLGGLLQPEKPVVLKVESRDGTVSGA
- measurement.notes: Determination of IC50 against CYP3A4 by measurement of inhibition of midazolam metabolism (human liver microsomes, 1-hydroxymidazolam by LC-MS/MS)
- Assay type: biochemical
- Set-up: 0.1 mg/mL human liver microsomes
- study.conditions: 2 μM midazolam, 0.1 mg/mL human liver microsomes
Task for the reader: assign each of the following compounds its reported IC50.
Answers are plain numbers, in nM.

Incoming: Observed IC50 on UniProt P08684 for COc1cncc(NS(=O)(=O)c2ccccc2C(=O)NCc2ccc(Cl)c(Cl)c2)c1 , please.
Outgoing: 17

Incoming: What about this compound? CCCCN(C)C(=O)c1ccccc1S(=O)(=O)Nc1cncc(C)c1
Outgoing: 16

Incoming: What about this compound? CCCCCN(C)C(=O)c1ccccc1S(=O)(=O)Nc1cncc(OC)c1
Outgoing: 14

Next up:
Incoming: Observed IC50 on UniProt P08684 for Nc1cncc(NS(=O)(=O)c2ccccc2C(=O)NCc2ccc(F)c(F)c2)c1 , please.
Outgoing: 20
